- ASSAY_TARGET: T1, human activated protein C (human, UniProt P04070 43-197; P04070 212-461)
- T1 construct: also called human aPC; human APC
- METHOD_NOTES: ELISA, coated antigen
Listing of entries alongside the reported pEC50.
# pEC50 is unitless: minus log10 of the molar concentration; print number only

>>> endpoint_value("Hu1573-14 (antibody, V domains shown, Humanized IgG, human gamma 1 / kappa constant regions by vectors pCP-hCg1 and pCP-hck; also called H1573VH.1E + H1573Vk.2B) VH: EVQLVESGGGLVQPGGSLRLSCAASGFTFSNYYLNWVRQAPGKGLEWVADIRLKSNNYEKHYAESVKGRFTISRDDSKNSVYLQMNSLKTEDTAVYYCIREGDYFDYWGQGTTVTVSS VL: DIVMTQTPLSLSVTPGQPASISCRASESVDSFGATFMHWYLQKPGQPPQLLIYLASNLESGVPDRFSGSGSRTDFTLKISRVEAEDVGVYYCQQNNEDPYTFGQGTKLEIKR")
9.65

Next:
Exercise: Complete the entry with pEC50 for Hu1573-6 (antibody, V domains shown, Humanized IgG, human gamma 1 / kappa constant regions by vectors pCP-hCg1 and pCP-hck; also called H1573VH.1C + H1573Vk.2) VH: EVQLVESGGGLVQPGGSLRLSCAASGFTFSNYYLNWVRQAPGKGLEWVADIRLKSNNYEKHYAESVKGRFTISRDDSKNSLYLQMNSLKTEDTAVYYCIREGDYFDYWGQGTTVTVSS VL: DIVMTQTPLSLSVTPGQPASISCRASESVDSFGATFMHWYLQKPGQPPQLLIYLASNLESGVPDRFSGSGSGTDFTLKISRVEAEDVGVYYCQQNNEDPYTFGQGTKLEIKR
Solution: 9.56

The origin of these recorded values is patent USRE49099.
